- EXPERIMENT: Stability in fresh human whole blood
- Type: in vitro ADME
- CONDITION: 0.5 μM, percent unchanged test compound
Measured Stability WB_Human (37° C.; 2 hr), listed per entry for reference.

Known Stability WB_Human (37° C.; 2 hr) results, listed for orientation:
{"COMPOUND": "CCOc1nc(N)nc2c1ncn2[C@@H]1O[C@@H]2COP(=O)(OCCSC(=O)C(C)(C)CO)O[C@H]2[C@@]1(C)O (single isomer, unassigned) [Compound 4 Diastereomer 1]", "RESULT": "82%"}
{"COMPOUND": "CCOc1nc(N)nc2c1ncn2[C@@H]1O[C@@H]2COP(=O)(OCCCC(=O)OC(C)C)O[C@H]2[C@@]1(C)F (single isomer, unassigned; diastereomer 1) [Compound 3 Diastereomer 1]", "RESULT": "20.5%"}

Recorded Stability WB_Human (37° C.; 2 hr) of CCOc1nc(N)nc2c1ncn2[C@@H]1O[C@@H]2COP(=O)(OC[C@H](C)NC(=O)OC)O[C@H]2[C@@]1(C)F (single isomer, unassigned; diastereomer 2) [Compound 9 Diastereomer 2] , please. 85%

Recorded Stability WB_Human (37° C.; 2 hr) of CCOc1nc(N)nc2c1ncn2[C@@H]1O[C@@H]2COP(=O)(OCCSC(=O)C(C)(C)CO)O[C@H]2[C@@]1(C)F (single isomer, unassigned) [Compound 5 Diastereomer 2] , please. 46%

For CCOc1nc(N)nc2c1ncn2[C@@H]1O[C@@H]2COP(=O)(OCCC(=O)OC(C)C)O[C@H]2[C@@]1(C)O (single isomer, unassigned; diastereomer 2) [Compound 22 Diastereomer 2] , what is its reported Stability WB_Human (37° C.; 2 hr)? 88%

Quick one: Stability WB_Human (37° C.; 2 hr) of CCOc1nc(N)nc2c1ncn2[C@@H]1O[C@@H]2COP(=O)(OCCCC(=O)OC(C)C)O[C@H]2[C@@]1(C)O (single isomer, unassigned) [Compound 1 Diastereomer 1] ? 73%

Quick check: Stability WB_Human (37° C.; 2 hr) of CCOc1nc(N)nc2c1ncn2[C@@H]1O[C@@H]2COP(=O)(OCCSC(=O)C(C)(C)CO)O[C@H]2[C@@]1(C)F (single isomer, unassigned) [Compound 5 Diastereomer 1] ? 82%

Looking for the measured Stability WB_Human (37° C.; 2 hr) of CCOc1nc(N)nc2c1ncn2[C@@H]1O[C@@H]2COP(=O)(OCCCC(=O)OC(C)C)O[C@H]2[C@@]1(C)F (single isomer, unassigned) [Compound 20 Diastereomer 1] , can you help? 98%

###

- EXPERIMENT: in vitro
- CONDITION: human, HCV Replicon CC50, Zluc cells, CellTiter-Blue
READOUT_LABEL: CC50

Some molecules with recorded CC50:
{"MOLECULE": "CCOC(=O)OC(C)OP1(=O)OC[C@H]2O[C@@H](n3cnc4c(OC)nc(N)nc43)[C@](C)(O)[C@@H]2O1 (stereo partly shown)", "RESULT": "< 50 µM"}
{"MOLECULE": "CCOc1nc(N)nc2c1ncn2[C@@H]1O[C@@H]2COP(=O)(OCCCNC(=O)[C@@H]3OC(C)(C)OCC3(C)C)O[C@H]2[C@@]1(C)O (stereo partly shown)", "RESULT": "> 50 µM"}
{"MOLECULE": "COc1nc(N)nc2c1ncn2[C@@H]1O[C@@H]2COP(=O)(OCC(=O)OC(C)C)O[C@H]2[C@@]1(C)O (stereo partly shown)", "RESULT": "< 50 µM"}

Consider the molecule shown here: CCOC(=O)CCCOP1(=O)OC[C@H]2O[C@@H](n3cnc4c(OC)nc(N)nc43)[C@](C)(O)[C@@H]2O1 (stereo partly shown) What is its recorded CC50? > 50 µM

Requested read-out: CC50. Entry: CCOC(=O)N[C@@H](C)COP1(=O)OC[C@H]2O[C@@H](n3cnc4c(OCC)nc(N)nc43)[C@](C)(F)[C@@H]2O1 (stereo partly shown) > 50 µM

What does the data say about its CC50? Entry: COc1nc(N)nc2c1ncn2[C@@H]1O[C@@H]2COP(=O)(OCC(=O)OC(C)C)O[C@H]2[C@@]1(C)OC(C)=O (stereo partly shown) < 50 µM

# CC50 lookup, item CCOC(=O)C[C@@H](C)OP1(=O)OC[C@H]2O[C@@H](n3cnc4c(OC)nc(N)nc43)[C@](C)(O)[C@@H]2O1 (stereo partly shown) > 50 µM
